Experiment: T. cruzi intracellular proliferation inhibitors, primary screen, cell-based, beta-gal Tulahuen parasites, NIH3T3 host, luminescence (AID 624255)
Conditions: T. cruzi beta-gal in NIH3T3, GalScreen luminescence, 90 h; at 8.34 µM; stronger effect = higher value
Among all 77,000 compounds or so, about 4,600 (6%) were called active. Another 1% or so got no clear call; they are omitted. This excerpt belongs to a sample that is enriched for actives.
metric: inhibition (%)
One number for each entry, in %.

Some entries whose results are on file:
C[C@@H]1CN([C@H](C)CO)S(=O)(=O)c2ccc(C#CCN(C)C)cc2O[C@@H]1CN(C)C; -35.4
C[C@H](CO)N1C[C@H](C)[C@@H](CN(C)C(=O)CCC(F)(F)F)OCCCC[C@H](C)Oc2ccc(NC(=O)C3CCCCC3)cc2C1=O; 39.7
CN1C[C@@H]2[C@H](c3ccccc31)[C@H](CO)N2C(=O)Nc1ccc(F)cc1; 15.1

Can you give me inhibition for all of these, one by one?
1. C[C@H](O)C#Cc1ccc2c(c1)O[C@@H](CN(C)Cc1cncnc1)[C@H](C)CN([C@H](C)CO)S2(=O)=O
2. C[C@H](CO)N1C[C@H](C)[C@H](CN(C)Cc2ccncc2)Oc2cc(-c3cncnc3)ccc2S1(=O)=O
3. C[C@@H]1CN([C@H](C)CO)C(=O)c2cc(NC(=O)c3ccccc3)ccc2O[C@@H](C)CCCCO[C@H]1CN(C)C(=O)c1ccncc1
4. C[C@@H]1CN([C@H](C)CO)S(=O)(=O)c2ccc(C#CCN(C)C)cc2O[C@H]1CN(C)C(=O)CC1CC1
5. C[C@@H](O)C#Cc1ccc([C@@H]2[C@@H](CO)N3CCCCN(C(=O)c4ccc(F)cc4)C[C@@H]23)cc1
6. C[C@@H]1CN([C@@H](C)CO)S(=O)(=O)c2ccc(-c3ccncc3)cc2O[C@@H]1CN(C)C(=O)Nc1ccc(F)cc1
7. COc1ccc(S(=O)(=O)N2C[C@@H](O)COC[C@H]3O[C@H](CC(=O)N[C@H]4CCN(Cc5ccccc5)C4)CC[C@@H]32)cc1

Result:
1. -5.8
2. 16.7
3. -20.8
4. 92.5
5. 26.5
6. 100
7. 77.6

Can you give me inhibition for all of these, one by one?
1. CN1CCN(C(=O)C[C@H]2C[C@@H]3c4cc(NC(=O)Nc5ccc(C(F)(F)F)cc5)ccc4O[C@@H]3[C@H](CO)O2)CC1
2. O=C(N[C@H]1C=C[C@@H](CC(=O)N2CCN(c3ccccc3)CC2)O[C@@H]1CO)c1ccncc1
3. COc1ccc(NC(=O)N(C)C[C@H]2Oc3cc(-c4ccncc4)ccc3S(=O)(=O)N([C@H](C)CO)C[C@H]2C)cc1

Result:
1. -59.1
2. -7
3. 70.2

Can you give me inhibition for all of these, one by one?
1. Cc1ccc(S(=O)(=O)Nc2ccc3c(c2)C(=O)N(C)[C@H]2CC[C@H](CC(=O)O)O[C@H]2CO3)cc1
2. C[C@@H]1CN([C@@H](C)CO)S(=O)(=O)c2ccc(C#CCC3CCCC3)cc2O[C@@H]1CN(C)C

Result:
1: 22.9; 2: 2.02

---

Experiment: T. cruzi intracellular proliferation inhibitors, primary screen, cell-based, beta-gal Tulahuen parasites, NIH3T3 host, luminescence (AID 624255)
Settings: T. cruzi beta-gal in NIH3T3, GalScreen luminescence, 90 h; at 8.34 µM
In all, about 77,000 compounds went through this assay and about 4,600 (6%) were called active. Roughly 1% stayed inconclusive and do not appear here.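 How the source made its calls: active means mean inhibition above about 93%, with at least 55% of replicates each passing it (limit read from the data, passing the limit was not always enough); inconclusive means only one of those two conditions holds; inactive means neither condition holds.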 The list comes from a sample in which actives are over-represented; it also holds close analogues and randomly drawn compounds.
Pick from true for active, false for inactive when you respond.

Sample answers from the record:
COC(=O)C[C@@H]1CC[C@H]2[C@@H](COC[C@H](O)CN2C(=O)Nc2ccccc2OC)O1; false
CN(C)C(=O)c1ccc(-c2ccc([C@H]3[C@@H](CO)N4CCCCN(CC5CC5)C[C@H]34)cc2)cc1; true
CN(C)C(=O)c1ccc(-c2ccc([C@@H]3[C@@H](CO)N4CCCCN(CC5CC5)C[C@H]34)cc2)cc1; false
CS(=O)(=O)N1CCCCN2[C@@H](CO)[C@@H](c3ccc(Br)cc3)[C@@H]2C1; false
O=C(C[C@H]1CC[C@H]2[C@@H](COC[C@@H](O)CN2CCC(F)(F)F)O1)NCc1ccc2c(c1)OCO2; false
CN(C)C(=O)c1ccc(-c2ccc([C@H]3[C@H](CO)N4CCCCN(S(C)(=O)=O)C[C@@H]34)cc2)cc1; false
CN(C)CC#Cc1ccc([C@H]2[C@H](CO)N3CCCCN(CC4CC4)C[C@@H]23)cc1; false

Now consider a different compound.
Ask: Entry CCNC(=O)Nc1ccc2c(c1)C(=O)N(C)[C@H]1CC[C@H](CC(=O)NCC3CCCCC3)O[C@@H]1CO2 : call = ?
Result: false
